Target: T1, human MCAM expressed on CHO cells (full length human MCAM gene) (human, UniProt P43121 24-646)
T1 construct: also called hMCAM expressing CHO cells; CD146
T1 chain: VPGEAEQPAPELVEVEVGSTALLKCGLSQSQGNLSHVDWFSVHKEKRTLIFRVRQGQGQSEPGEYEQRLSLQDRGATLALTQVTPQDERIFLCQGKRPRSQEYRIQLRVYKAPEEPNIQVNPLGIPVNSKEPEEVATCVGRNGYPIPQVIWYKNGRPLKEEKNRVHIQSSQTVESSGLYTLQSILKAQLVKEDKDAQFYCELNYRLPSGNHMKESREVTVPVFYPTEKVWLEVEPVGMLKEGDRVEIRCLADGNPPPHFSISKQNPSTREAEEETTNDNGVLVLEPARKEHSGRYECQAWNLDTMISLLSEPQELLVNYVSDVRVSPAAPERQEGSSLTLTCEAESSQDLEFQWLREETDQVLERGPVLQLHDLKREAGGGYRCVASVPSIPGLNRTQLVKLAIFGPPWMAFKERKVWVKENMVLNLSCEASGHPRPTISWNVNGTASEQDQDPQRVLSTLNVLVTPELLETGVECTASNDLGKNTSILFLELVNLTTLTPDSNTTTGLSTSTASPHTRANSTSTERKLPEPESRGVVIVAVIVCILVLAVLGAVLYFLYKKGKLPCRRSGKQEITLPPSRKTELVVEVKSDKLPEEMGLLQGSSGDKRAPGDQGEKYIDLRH
Assay: laminin/FACS assay: blocking of recombinant laminin 411 binding to hMCAM expressing CHO cells, relative to rodent 2120, Expt#2
Procedure: Following incubation for 30-45 minutes, the cells were washed and anti-laminin conjugated to AF650 (NovusBio) was added to detect the bound laminin. The cells were run on a flow cytometer to measure the laminin binding signal.
For each of the binders below, state its Fold over rodent (Blocking).
Don't forget the unit after the number, please.

I have this binder here, humanized anti-MCAM antibody h2120_VH1 + h2120_VL3 (antibody, V domains shown, V regions cloned into vectors containing human CK (VL) or human IgG1 (VH); also called h2120VH1VL3; Standard VH + conservative VL) VH: QVTLKESGPVLVKPTETLTLTCTVSGFSLTSNGVSWVRQPPGKALEWIAAISSGGTTYYNSAFKSRLTISRDTSKSQVVLTMTNMDPVDTATYYCARRYGYGWYFDFWGQGTLVTVSS VL: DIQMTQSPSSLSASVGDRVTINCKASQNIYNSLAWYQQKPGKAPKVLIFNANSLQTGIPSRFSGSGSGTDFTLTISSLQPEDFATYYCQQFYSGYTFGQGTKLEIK , and I need its recorded Fold over rodent (Blocking).
2.8 fold

Let us now turn to humanized anti-MCAM antibody h2120_VH4 + h2120_VL3 (antibody, V domains shown, Human IgG1 / human kappa; also called h2120VH4VL3; N-Q deamidate VH + conservative VL) VH: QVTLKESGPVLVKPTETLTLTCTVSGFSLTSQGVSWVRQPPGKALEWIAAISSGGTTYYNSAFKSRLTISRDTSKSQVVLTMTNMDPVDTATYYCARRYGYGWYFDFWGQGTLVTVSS VL: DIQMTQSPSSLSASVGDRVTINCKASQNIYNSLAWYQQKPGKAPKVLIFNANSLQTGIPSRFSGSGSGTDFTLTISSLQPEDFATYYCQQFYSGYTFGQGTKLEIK
5.6 fold

Let us now turn to humanized anti-MCAM antibody h2120_VH1 + h2120_VL2 (antibody, V domains shown, Human IgG1 / human kappa; also called h2120VH1VL2; Standard VH + aggressive VL) VH: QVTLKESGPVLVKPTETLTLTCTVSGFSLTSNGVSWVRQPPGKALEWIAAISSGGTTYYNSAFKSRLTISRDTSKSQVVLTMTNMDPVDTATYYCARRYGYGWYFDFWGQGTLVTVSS VL: DIQMTQSPSSLSASVGDRVTITCKASQNIYNSLAWYQQKPGKAPKVLIFNANSLQTGVPSRFSGSGSGTDFTLTISSLQPEDFATYYCQQFYSGYTFGQGTKLEIK
12.6 fold

Let us now turn to humanized anti-MCAM antibody h2120_VH5 + h2120_VL3 (antibody, V domains shown, Human IgG1 / human kappa; also called h2120VH5VL3; VH5VL3) VH: QVTLKESGPVLVKPTETLTLTCTVSGFSLTSNAVSWVRQPPGKALEWIAAISSGGTTYYNSAFKSRLTISRDTSKSQVVLTMTNMDPVDTATYYCARRYGYGWYFDFWGQGTLVTVSS VL: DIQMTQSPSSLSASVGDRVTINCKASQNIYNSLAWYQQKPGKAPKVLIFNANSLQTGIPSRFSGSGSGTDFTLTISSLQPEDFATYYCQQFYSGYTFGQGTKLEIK
1.5 fold

Origin of values: patent US20170101470A1
